tested on: CP297; experiment: qHTS profiling for inhibitors of Plasmodium falciparum proliferation (AID 504749); note: nearly all actives have a fitted effect of over 60% in size; details: P. falciparum in erythrocytes, SYBR Green DNA, 72 h; series mostly up to 28.7 µM
Records with an inconclusive call do not appear. Calls of active or inactive are those of the source. Calls come from the whole dose curve; as a rule, active = well fitted inhibition curve with a large enough effect; inconclusive = small, poorly fitted or top-dose-only effect; inactive = flat fitted curve, though single readings scatter.
Outcome codes: active, inactive

compound	class
CCC(=O)O[C@]1(C(=O)CCl)[C@@H](C)CC2C3C[C@H](F)C4=CC(=O)C=CC4(C)[C@@]3(F)C(O)CC21C (stereo not given in full)	active
Cc1ccc(Nc2ncccc2C(=O)O)cc1C	inactive
CC1=C(C/C=C(\C)CCCC(C)CCCC(C)CCCC(C)C)C(=O)c2ccccc2C1=O (stereo not given)	inactive
C=C1C(=O)O[C@@H]2[C@@H]1CC/C(C)=C\CC[C@@]1(C)O[C@H]21	inactive
O=C1Oc2ccccc2C(=O)C1C(CC(O)c1ccc(-c2ccc(Br)cc2)cc1)c1ccccc1 (stereo not given)	inactive
